Measured values drawn from a melting point compilation (Tetko et al.; mined from patent text by program, amines drawn as free bases though some values may be those of a salt) for this set.

Each record here notes measured melting point.

| compound | melting point |
| --- | --- |
| O=c1[nH]nc(-c2ccccc2[N+](=O)[O-])o1 | 157 to 158 °C |
| CC(C)(ON1C(C)(C)CC(OC(=O)c2ccccc2)CC1(C)C)c1ccccc1 | 105 to 108 °C |
| COc1ccc(-c2c(Cl)c(CN3C(=O)CCC3=O)nc3sc4c(c23)CCC(C(=O)N2CCOCC2)C4)cc1 (configuration not stated) | 170 to 171 °C |
| CCCCCCCCCCCCCCCCOCCO | 42 to 44 °C |

Q: What melting point value was documented for this compound, CC(=O)SC(CC(=O)c1ccc(Cl)cc1Cl)C(=O)O (configuration not stated) ?
A: 73 to 74.5 °C

###

assay readout: melting point

Sample records with melting point:
| compound | result |
| --- | --- |
| CCNC(=O)c1c([Si](C)(C)C)ccc(CF)c1Cl | 104 to 105 °C |
| COc1nc(N)nc(-c2ccccc2)n1 | 159 to 160 °C |
| CC(C)(C)COc1ccc(NC(=O)c2cccn2-c2ccc(F)cc2)cc1C#N | 181 to 182 °C |
| CCCOc1cc(Cl)ccc1-c1nc2ncn(C)c(=S)n2n1 | 160 to 162 °C |
| c1ccc(OCCSCc2nnc(-c3ccc(OCc4cccnc4)cc3)o2)cc1 | 111 to 112 °C |

Q: # lookup: melting point of "Cc1cc(N(C)c2ccn(-c3ccccc3)n2)cc(C)c1O"
A: 139 to 140 °C

Q: Consider the compound shown here: "Cc1cc(Cl)ccc1N=CN(C)SN(Cc1ccccc1)Cc1ccccc1" What is its recorded melting point?
A: 97 to 99 °C

Q: For "CCNC(=O)[C@@H](C[C@H](O)[C@H](CC1CCCCC1)NC(=O)OC(C)(C)C)C(C)(C)O" , what is its reported melting point?
A: 155 to 157 °C

###

assay readout: melting point

A selection of reference data follows.
| compound | result |
| --- | --- |
| CCN(CC)C(=O)c1ccc(OCOC)cc1-c1ccccc1 | 63 to 64 °C |
| CCOC(=O)c1c[nH]c2nc(-c3ccncc3)c(F)cc2c1=O | 280 to 285 °C |
| COC(CNC1=Nc2ccccc2Nc2ccccc21)OC | 181 to 182 °C |
| COc1cc2c(cc1Nc1ncc(Cl)c(Nc3ccccc3C(=O)OC(C)C)n1)CCN(CCCN(C)C)C(=O)C2 | 63 to 90 °C |
| O=CC1(c2ccc(Cl)cc2)CC1 | 38 to 41 °C |

Q: // returns reported melting point for input CC(C)CC(CO)NC(=O)C(Cc1c[nH]cn1)NC(=O)C(Cc1cccc2ccccc12)NC(=O)COc1cccc2ccccc12 (stereo unspecified)
A: 215 to 217 °C

Q: Look at this compound and give its reported melting point. CSC1=NC2C=C(C(=O)NCC3CC3)C(NC(=O)c3cc(C(F)(F)F)nn3-c3ncccc3Cl)=C(Cl)C2S1 (stereo unspecified)
A: 221 to 223 °C

###

melting point overview

Some solved entries appear below for comparison.
| compound | result |
| --- | --- |
| CNc1nc2ccccc2n(-c2ccc(Cl)cc2)c1=O | 217 to 220 °C |
| CCCn1c(=O)c2c(nc(C=Cc3cc(OC)c(OC)cc3S(=O)(=O)N(CC)CC)n2C)n(CCC)c1=O | 227 to 228 °C |
| CCC(=O)N1Cc2c(-c3noc(C4CC4)n3)ncn2-c2ccccc21 | 175 to 176 °C |
| O=C1NCCN1c1ccc(S(=O)(=O)Nc2ccc(OC(F)F)cc2)cc1 | 198 to 200 °C |
| O=C1N(Cc2nc3cc(F)ccc3[nH]2)c2ccccc2C12COc1cc3c(cc12)OCO3 (stereo unspecified) | 138 to 142 °C |

For the next question, use this compound.
Q: Which melting point value is on record for CN(Cc1cc2c(=O)c(C(=O)NCc3ccc(Cl)cc3)cn(C)c2o1)CC(O)c1cc2ccccc2o1 (stereo unspecified) ?
A: 176 to 179 °C

###

melting point values, listed per item

| compound | melting point |
| --- | --- |
| CC(=O)Oc1ccc2c(c1)C(C(Cl)(Cl)Cl)OC(C(Cl)(Cl)Cl)O2 (configuration not stated) | 142 to 144 °C |

Q: Tell me the measured melting point of "O=S1(=O)C=C(Br)C=C1CO" , please.
A: 56 to 57 °C

Q: Recorded melting point of "CN1CCN(C(=S)Nc2ccc3nc(C(C)(C)C)sc3c2)CC1" , please.
A: 176 to 177 °C

Q: Field request: melting point | item: "CCc1nn(C2CCCC2)c2cc(C(=O)Nc3ccc(C(=O)NOCc4ccccc4)cc3)ccc12"
A: 194 to 198 °C

Q: I would be grateful if you could share the reported melting point for "CCOC(=O)c1cccc2nc(CNC)n(Cc3ccc(-c4ccccc4-c4nnn[nH]4)cc3)c12" .
A: 248 to 250 °C

Q: melting point lookup needed for "COc1ccc(C=O)c(OC)c1C" , thanks.
A: 51 to 52 °C

Q: Look at this compound and give its reported melting point. CSc1cc(C(C)C)c(NC(=O)C2c3ccccc3COc3ccc(C)cc32)c(C(C)C)c1 (configuration not stated)
A: 126 °C

###

Recorded melting point values for a group of compounds are listed next.

Completed entries (count: 5):
| compound | melting point |
| --- | --- |
| CC(C)(C)OC(=O)CCN1CCN(CC2CN(c3ccc(C(=N)NC(=O)c4ccccc4)cc3)C(=O)O2)CC1 (configuration not stated) | 136 to 137 °C |
| CN1Cc2c(C(=O)OC(C)(C)C)ncn2-c2ccncc2C1=O | 214 to 215 °C |
| CCC(C)C(CN[C@@H](Cc1ccccc1)C(=O)OCc1ccccc1)NC(=O)OC(C)(C)C (some centres not stated) | 53 to 55 °C |
| CON1C(=O)[C@@H](NC(=O)OC(C)(C)C)[C@@H]1C1CCCCC1 (relative stereo) | 110 to 112 °C |
| CNC(=O)C(=NOC)c1c(F)cccc1COc1ccccc1C | 93 °C |

# evaluate next
Q: Given the entry "COc1ccc(OS(=O)(=O)c2ccc(C)cc2)c(C(C)C)c1" , report its measured melting point.
A: 85.1 °C

###

assay readout: melting point (°C)

| molecule | assay readout | output unit | result |
| --- | --- | --- | --- |
| CC1=C(C(=O)OCC(C)C)C(c2cccc([N+](=O)[O-])c2)c2c(N)nc(N)nc2N1 (centres undefined) | melting point | °C | 130 |
| COc1ccc(S(=O)(=O)N(CC(N)=O)c2ccc(Cl)cc2Cc2ccccc2C(F)(F)F)cc1OC | melting point | °C | 133 |

###

assay readout: melting point

Check out these entries, answers already filled in.
| molecule | melting point |
| --- | --- |
| CCOc1cc(-c2c(C(=O)OC)c(C(=O)OC)c(O)c3cc(OC)c(OC)c(OC)c23)ccc1OC | 158 °C |
| CC(C)(C)c1ccc(S(=O)(=O)N2c3ccc(F)cc3CC2C(=O)NCCc2ccccc2)cc1 (centres undefined) | 168 to 172 °C |
| NCC1(O)c2ccccc2CCc2ccccc21 | 147 to 149 °C |

Q: What measured melting point goes with "Cc1nc(-c2noc(Cc3ccccc3)n2)sc1C(=O)NCc1ccccc1" ?
A: 124 to 125 °C

Q: What melting point value was documented for this molecule, "O=CN[C@H]1CC[C@H](CCN2CCN(c3nccc4c3CCO4)CC2)CC1" ?
A: 170 °C

Q: Find the recorded melting point belonging to COc1ccc(N2CCN(c3c(C)c(C)c4c(c3C)CC(C)(CN(C)C)O4)CC2)cc1 (centres undefined) and report it.
A: 145 to 148 °C

###

melting point values, listed per item

Q: Give its melting point value. Item: "COc1ccc(S(=O)(=O)NCc2ccc(-n3c(-c4cccnc4N)nc4cc(Br)cnc43)cc2)cc1"
A: 188 to 190 °C

###

The following compounds are shown together with reported melting point values.

Use the examples below as a reference point.
| structure | melting point |
| --- | --- |
| Cc1nccc(N2CCN(C(=O)N3CCN(C(=O)OC(C)(C)C)CC3)CC2)n1 | 212 to 213 °C |
| NS(=O)(=O)Oc1ccc(C(F)(F)F)cc1 | 111 to 112 °C |

Q: Need melting point, item "CCCn1cnc2c1c1nnc(-c3ccncc3)n1c(=O)n2CCC"
A: 194 to 199 °C

###

assay readout: melting point

Example cases with answers are listed next.
| molecule | melting point |
| --- | --- |
| O=C(O)C1CCCN1C(=O)CCc1cccc(-c2nc(=O)c3ccccc3s2)n1 (centres undefined) | 210 to 211 °C |
| CCc1ccccc1NS(=O)(=O)c1ccc(N2CCNC2=O)cc1 | 171 to 172 °C |
| COc1cccc(-n2c(-c3cc(-c4ccc(S(C)(=O)=O)cc4)c(N4CCOCC4)s3)nc3ccccc3c2=O)c1 | 203 to 205 °C |

Q: Bench note: what melting point did "Nc1nc2cc(Cl)c(Cl)cc2nc1-c1ccco1" show?
A: 222 to 223 °C
